# target or system: UniProt:P48736
# Sequence (P48736 whole entry): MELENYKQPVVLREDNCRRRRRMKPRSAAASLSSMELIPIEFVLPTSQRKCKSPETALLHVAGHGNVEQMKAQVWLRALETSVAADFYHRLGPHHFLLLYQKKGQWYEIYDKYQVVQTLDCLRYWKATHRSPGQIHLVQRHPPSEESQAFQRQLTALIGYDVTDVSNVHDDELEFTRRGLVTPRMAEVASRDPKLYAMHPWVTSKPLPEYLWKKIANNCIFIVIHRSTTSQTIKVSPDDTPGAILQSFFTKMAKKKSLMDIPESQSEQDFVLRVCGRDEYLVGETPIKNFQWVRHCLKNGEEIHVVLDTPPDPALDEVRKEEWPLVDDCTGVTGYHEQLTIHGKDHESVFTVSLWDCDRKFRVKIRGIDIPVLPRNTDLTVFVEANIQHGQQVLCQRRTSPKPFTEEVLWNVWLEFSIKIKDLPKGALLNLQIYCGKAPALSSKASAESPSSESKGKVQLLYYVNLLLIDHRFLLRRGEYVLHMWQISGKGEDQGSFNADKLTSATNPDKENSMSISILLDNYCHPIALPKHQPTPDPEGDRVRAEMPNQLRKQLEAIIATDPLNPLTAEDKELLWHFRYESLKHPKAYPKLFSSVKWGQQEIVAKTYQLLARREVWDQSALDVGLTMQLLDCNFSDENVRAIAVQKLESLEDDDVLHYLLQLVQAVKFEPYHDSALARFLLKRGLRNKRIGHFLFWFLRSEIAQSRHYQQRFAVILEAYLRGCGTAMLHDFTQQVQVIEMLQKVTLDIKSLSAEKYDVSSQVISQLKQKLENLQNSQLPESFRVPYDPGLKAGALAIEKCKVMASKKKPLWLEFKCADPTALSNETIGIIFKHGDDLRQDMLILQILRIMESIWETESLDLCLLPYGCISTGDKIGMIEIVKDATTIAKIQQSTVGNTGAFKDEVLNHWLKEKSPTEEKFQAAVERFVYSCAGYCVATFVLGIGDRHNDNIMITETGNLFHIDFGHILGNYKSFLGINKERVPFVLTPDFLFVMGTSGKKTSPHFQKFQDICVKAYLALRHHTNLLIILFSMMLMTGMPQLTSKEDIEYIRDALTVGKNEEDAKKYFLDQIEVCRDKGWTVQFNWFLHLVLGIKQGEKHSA
# test: Assay 1: Fluorescent (HTRF) determination of PI3 kinase enzyme activity, PI3Kγ
# Format: biochemical
# measurement conditions: read-out: IC50 Pi3Kγ (cell prints μM)
quantity: IC50

## Task Return reported IC50; argument: `COc1ccc(-c2nn([C@H](C)c3oc4cccc(F)c4c(=O)c3-c3cccc(F)c3)c3ncnc(N)c23)cc1NS(C)(=O)=O`
## Result > 10 µM

====

# target or system: PI3Kβ (Homo sapiens, UniProt P42338)
# Sequence (P42338 whole entry): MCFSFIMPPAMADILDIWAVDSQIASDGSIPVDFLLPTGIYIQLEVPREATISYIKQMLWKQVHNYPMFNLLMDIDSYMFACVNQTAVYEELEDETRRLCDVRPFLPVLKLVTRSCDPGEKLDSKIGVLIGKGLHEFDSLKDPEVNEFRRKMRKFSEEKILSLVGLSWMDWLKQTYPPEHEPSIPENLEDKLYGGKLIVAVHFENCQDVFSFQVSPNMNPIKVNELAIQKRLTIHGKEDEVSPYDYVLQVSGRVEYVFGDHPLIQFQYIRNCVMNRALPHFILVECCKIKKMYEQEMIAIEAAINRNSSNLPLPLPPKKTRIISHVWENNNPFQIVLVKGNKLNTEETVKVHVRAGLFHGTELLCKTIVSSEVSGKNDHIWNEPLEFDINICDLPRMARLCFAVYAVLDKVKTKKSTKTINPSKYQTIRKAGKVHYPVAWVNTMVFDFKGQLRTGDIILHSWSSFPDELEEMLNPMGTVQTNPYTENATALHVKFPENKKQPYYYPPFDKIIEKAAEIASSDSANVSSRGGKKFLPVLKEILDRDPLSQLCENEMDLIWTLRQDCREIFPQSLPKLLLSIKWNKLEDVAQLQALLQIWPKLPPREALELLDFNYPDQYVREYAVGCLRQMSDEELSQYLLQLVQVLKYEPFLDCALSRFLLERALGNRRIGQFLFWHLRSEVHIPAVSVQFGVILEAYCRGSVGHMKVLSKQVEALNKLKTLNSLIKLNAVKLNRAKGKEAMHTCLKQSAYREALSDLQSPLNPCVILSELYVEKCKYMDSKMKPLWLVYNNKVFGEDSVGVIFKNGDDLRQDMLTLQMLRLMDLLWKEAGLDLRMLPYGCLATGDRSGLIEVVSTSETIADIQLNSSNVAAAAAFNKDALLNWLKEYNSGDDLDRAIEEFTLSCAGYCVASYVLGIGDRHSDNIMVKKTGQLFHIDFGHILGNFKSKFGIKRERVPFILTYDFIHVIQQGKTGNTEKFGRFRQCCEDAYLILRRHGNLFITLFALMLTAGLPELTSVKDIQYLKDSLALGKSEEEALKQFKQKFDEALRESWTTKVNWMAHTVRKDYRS
# Sequence (P27986 whole entry partner): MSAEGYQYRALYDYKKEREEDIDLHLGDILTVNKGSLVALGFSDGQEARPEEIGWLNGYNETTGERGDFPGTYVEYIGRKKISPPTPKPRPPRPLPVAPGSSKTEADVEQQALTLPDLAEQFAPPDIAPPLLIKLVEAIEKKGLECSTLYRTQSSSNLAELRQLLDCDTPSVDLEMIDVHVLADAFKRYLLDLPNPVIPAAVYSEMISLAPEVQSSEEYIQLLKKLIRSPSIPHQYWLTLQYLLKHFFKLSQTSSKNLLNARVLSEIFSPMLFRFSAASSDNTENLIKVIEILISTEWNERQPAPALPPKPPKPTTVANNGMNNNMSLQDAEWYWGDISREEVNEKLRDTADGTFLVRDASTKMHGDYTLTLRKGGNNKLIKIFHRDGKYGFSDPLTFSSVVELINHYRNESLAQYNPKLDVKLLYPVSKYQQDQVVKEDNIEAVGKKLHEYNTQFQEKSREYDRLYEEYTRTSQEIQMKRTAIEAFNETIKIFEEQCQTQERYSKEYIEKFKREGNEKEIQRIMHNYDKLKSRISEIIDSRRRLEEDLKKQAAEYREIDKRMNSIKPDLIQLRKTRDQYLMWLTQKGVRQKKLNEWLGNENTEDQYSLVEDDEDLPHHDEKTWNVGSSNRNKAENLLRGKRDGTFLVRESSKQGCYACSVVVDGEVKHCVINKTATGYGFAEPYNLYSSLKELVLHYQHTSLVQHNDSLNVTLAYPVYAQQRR
# test: Assay 1: Fluorescent (HTRF) determination of PI3 kinase enzyme activity, PI3Kβ
# Type: biochemical
# measurement conditions: HTRF enzyme assay
quantity: IC50 (nM)
Record the value in nM, omitting the unit from your answer.

## Task Reported IC50 for PI3Kβ (Homo sapiens, UniProt P42338), given `COc1ccc(-c2nn([C@@H](C)c3oc4cccc(F)c4c(=O)c3-c3cccc(F)c3)c3ncnc(N)c23)cc1NS(C)(=O)=O` ?
## Result 1360

====

# test: Oral pharmacokinetics in mice
# Type: in vivo
# measurement conditions: mouse, plasma, 10 mg/kg
quantity: Cmax (µM)
Write the value in µM as a bare number.

## Task For the compound `COc1ccc(-c2nn([C@@H](C)c3oc4cccc(F)c4c(=O)c3-c3cccc(F)c3)c3ncnc(N)c23)cc1NS(C)(=O)=O` , what Cmax is on record?
## Result 3.78

====

# test: Oral pharmacokinetics in rats
# Assay type: in vivo
# measurement conditions: plasma, Rat, 10 mg/kg
Give measured Cmax for each item. Keep answers brief.
Report only the number, with the unit µM understood.

## Task Please report the recorded Cmax for COc1ccc(-c2nn(C(C)c3oc4cccc(F)c4c(=O)c3-c3cccc(F)c3)c3ncnc(N)c23)cc1NS(C)(=O)=O (racemic) .
## Result 1.02

## Task Would you kindly share the measured Cmax for `COc1ccc(-c2nn([C@@H](C)c3oc4cccc(F)c4c(=O)c3-c3cccc(F)c3)c3ncnc(N)c23)cc1NS(C)(=O)=O` ?
## Result 11.4

====

# Test system: pAKT in isolated mouse splenocytes
# test: Assay 6C: Inhibition of AKT phosphorylation in isolated mouse splenocytes
# Assay type: cell-based
# measurement conditions: Splenocyte, 0.5 h, LPS 20 μg/mL, 30 minutes, ELISA, read-out: EC50, reduction in phosphorylation of AKT
quantity: EC50 (nM)
Return type: number; implicit unit nM.

## Task Query (molecule): `COc1ccc(-c2nn([C@@H](C)c3oc4cccc(F)c4c(=O)c3-c3cccc(F)c3)c3ncnc(N)c23)cc1NS(C)(=O)=O` ; field requested: EC50
## Result 347

====

# target or system: PI3K alpha (Mus musculus, UniProt P42337)
# Construct: endogenous in cells
# Sequence (P42337 whole entry): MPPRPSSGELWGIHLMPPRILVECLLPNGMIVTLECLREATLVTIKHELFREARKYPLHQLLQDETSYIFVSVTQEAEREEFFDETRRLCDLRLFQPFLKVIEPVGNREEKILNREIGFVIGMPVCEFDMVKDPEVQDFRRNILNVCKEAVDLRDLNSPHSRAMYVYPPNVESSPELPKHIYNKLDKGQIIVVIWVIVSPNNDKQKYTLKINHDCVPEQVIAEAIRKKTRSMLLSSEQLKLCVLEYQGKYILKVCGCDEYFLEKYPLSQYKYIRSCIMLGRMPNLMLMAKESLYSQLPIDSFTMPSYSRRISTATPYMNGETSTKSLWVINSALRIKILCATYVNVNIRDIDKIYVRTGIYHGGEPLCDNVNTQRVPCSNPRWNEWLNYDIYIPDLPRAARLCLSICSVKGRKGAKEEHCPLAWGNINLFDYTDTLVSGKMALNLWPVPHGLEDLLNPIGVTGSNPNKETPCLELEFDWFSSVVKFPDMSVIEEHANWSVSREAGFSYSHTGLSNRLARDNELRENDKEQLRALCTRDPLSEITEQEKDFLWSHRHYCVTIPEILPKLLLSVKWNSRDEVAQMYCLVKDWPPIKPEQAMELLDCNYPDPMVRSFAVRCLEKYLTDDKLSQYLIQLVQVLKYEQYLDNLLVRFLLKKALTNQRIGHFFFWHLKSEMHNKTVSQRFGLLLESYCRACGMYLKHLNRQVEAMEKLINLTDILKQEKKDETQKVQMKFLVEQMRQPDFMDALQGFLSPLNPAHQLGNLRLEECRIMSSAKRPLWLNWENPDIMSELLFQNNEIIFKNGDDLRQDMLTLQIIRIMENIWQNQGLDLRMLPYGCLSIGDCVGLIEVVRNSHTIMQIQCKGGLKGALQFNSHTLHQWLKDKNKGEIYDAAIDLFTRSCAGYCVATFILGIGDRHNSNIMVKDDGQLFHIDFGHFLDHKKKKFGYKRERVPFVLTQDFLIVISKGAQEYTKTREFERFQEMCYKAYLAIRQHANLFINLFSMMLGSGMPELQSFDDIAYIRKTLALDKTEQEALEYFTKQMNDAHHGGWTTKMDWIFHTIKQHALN
# Sequence (P26450 whole entry partner): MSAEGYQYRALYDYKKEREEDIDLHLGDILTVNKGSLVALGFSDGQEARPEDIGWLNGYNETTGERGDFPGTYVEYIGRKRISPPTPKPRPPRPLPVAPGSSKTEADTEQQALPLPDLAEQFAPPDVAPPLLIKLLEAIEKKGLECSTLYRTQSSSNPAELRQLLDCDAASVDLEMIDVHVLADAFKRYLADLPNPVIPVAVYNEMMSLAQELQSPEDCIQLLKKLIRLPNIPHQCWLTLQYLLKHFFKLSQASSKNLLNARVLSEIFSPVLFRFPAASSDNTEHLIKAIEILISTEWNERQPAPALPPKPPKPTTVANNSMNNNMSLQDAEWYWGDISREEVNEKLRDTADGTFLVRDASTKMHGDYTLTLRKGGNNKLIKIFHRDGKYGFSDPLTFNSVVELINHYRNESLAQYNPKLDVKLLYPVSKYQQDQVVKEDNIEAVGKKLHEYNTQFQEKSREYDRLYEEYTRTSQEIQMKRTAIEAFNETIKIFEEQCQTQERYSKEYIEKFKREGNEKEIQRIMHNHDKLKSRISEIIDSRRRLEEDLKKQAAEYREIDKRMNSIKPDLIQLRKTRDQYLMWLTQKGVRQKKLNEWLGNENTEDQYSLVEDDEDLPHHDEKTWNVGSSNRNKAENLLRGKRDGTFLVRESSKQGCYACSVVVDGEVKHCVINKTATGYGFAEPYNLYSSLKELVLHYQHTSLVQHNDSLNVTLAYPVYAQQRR
# test: Assay 4A4: PDGF induced Akt phosphorylation in 3T3 cells
# measurement conditions: PDGF 20 ng/ml, 3T3 fibroblasts; read-out: Cellular IC50 PI3K alpha (PDGF induced pAKT in 3T3 fibroblasts)
pIC50: −log10 of the molar value.
quantity: pIC50

## Task Tell me the measured pIC50 of `COc1ccc(-c2nn([C@@H](C)c3oc4cccc(F)c4c(=O)c3-c3cccc(F)c3)c3ncnc(N)c23)cc1NS(C)(=O)=O` , please.
## Result < 5.00

====

# test: Oral pharmacokinetics in rats
# Format: in vivo
# measurement conditions: plasma, Rat, 10 mg/kg
quantity: Tmax (h)
Numeric answer only, unit h assumed.

## Task Quick one: Tmax for `COc1ccc(-c2nn([C@@H](C)c3oc4cccc(F)c4c(=O)c3-c3cccc(F)c3)c3ncnc(N)c23)cc1NS(C)(=O)=O` ?
## Result 1.83

## Task Find the recorded Tmax belonging to COc1ccc(-c2nn(C(C)c3oc4cccc(F)c4c(=O)c3-c3cccc(F)c3)c3ncnc(N)c23)cc1NS(C)(=O)=O (racemic) and report it.
## Result 2.67
